Assay: Distribution coefficient, log D of the compound
Format: physicochemical
Conditions: octanol/water
TEST READOUT: logD
// print number alone

CN(Cc1ccc(-n2nc(C(F)(F)F)c3c2CCCC3)cc1)S(C)(=O)=O    3.3
O=C(N1CCCC1)C(F)(F)c1ccc(-n2nc(C(F)(F)F)c3c2CCCC3)cc1    3.4
O=C(Cc1ccc(-n2nc(C(F)(F)F)c3c2CCCC3)cc1F)N1CCCC1    3.7

Inquiry: State its logD: CCCCN(C)C(=O)c1ccc(-n2nc(C(F)(F)F)c3c2CCCC3)cc1
Reply text: 3.2

Inquiry: Give the value of logD reported for the following: CN(CCc1ccccc1)C(=O)c1ccc(-n2nc(C(F)(F)F)c3c2CCCC3)cc1
Reply text: 3
